Sourced from patent US9938257B2

# assay-protocol: Pharmacokinetics after intravenous and oral administration in rats
# Format: in vivo
# test-settings: iv dosing, dose 1 mg/kg
readout: Clearance (CL) after iv dosing (mL/min/kg)

[[record]]
molecule = "Cn1cc(Nc2ncc(Cl)c(NC3CC4CN(c5ccc(C#N)nn5)CC4C3)n2)cn1 (stereo not shown) [Ex. 30]"
readout = "Clearance (CL) after iv dosing"
recorded_number = 15.5

[[record]]
molecule = "Cn1cc(Nc2ncc(Cl)c(NC3CCC4(CC3)CCN(C(=O)C3CC3)CC4)n2)cn1 [Ex. 22]"
readout = "Clearance (CL) after iv dosing"
recorded_number = 22.3

[[record]]
molecule = "CC(C)(O)Cn1cc(Nc2ncc(Cl)c(NC3CCC4(CC3)CCN(S(C)(=O)=O)CC4)n2)cn1 [Ex. 37]"
readout = "Clearance (CL) after iv dosing"
recorded_number = 29.3

[[record]]
molecule = "CC(C)(O)Cn1cc(Nc2ncc(Cl)c(NC3CC4CN(S(C)(=O)=O)CC4C3)n2)cn1 (stereo not shown) [Ex. 39]"
readout = "Clearance (CL) after iv dosing"
recorded_number = 96


* * *

# assay-protocol: Compound stability in rat liver microsomes
# Type: in vitro ADME
# test-settings: pH 7.4; rat liver microsomes 0.5 mg protein/mL, compound 5 μM, NADPH 1.0 mM, 37° C.; read-out: Rat T1/2
Binarize half-life at 5 μM at 8 min; below is 1.0, at or above is 0.0.

[[record]]
compound = "CCNC(=O)N1CC2CC(Nc3nc(Nc4cnn(C)c4)ncc3Cl)CC2C1 (stereo not drawn) [Ex. 18]"
label_value = 0.0

[[record]]
compound = "CC(=O)N1CC2CC(Nc3nc(Nc4cnn(C5CCNCC5)c4)ncc3Cl)CC2C1 (stereo not drawn) [Ex. 6]"
label_value = 0.0

[[record]]
compound = "Cn1cc(Nc2ncc(Cl)c(NC3CC4CN(C(=O)NC5CC5)CC4C3)n2)cn1 (stereo not drawn) [Ex. 19]"
label_value = 0.0

[[record]]
compound = "Cn1cc(Nc2ncc(Cl)c(NC3CC4CN(CC(C)(C)O)CC4C3)n2)cn1 (stereo not drawn) [Ex. 16]"
label_value = 1.0

[[record]]
compound = "CCNS(=O)(=O)N1CC2CC(Nc3nc(Nc4cnn(C)c4)ncc3Cl)CC2C1 (stereo not drawn) [Ex. 24]"
label_value = 0.0

[[record]]
compound = "Cn1cc(Nc2ncc(Cl)c(NC3CC4CN(C(=O)Nc5ccccc5)CC4C3)n2)cn1 (stereo not drawn) [Ex. 28]"
label_value = 1.0

[[record]]
compound = "CC(=O)N1CC2CC(Nc3nc(Nc4cnn(-c5ccccn5)c4)ncc3Cl)CC2C1 (stereo not drawn) [Ex. 8]"
label_value = 0.0

[[record]]
compound = "Cn1cc(Nc2ncc(Cl)c(NC3CCC4(CC3)CCN(CC(C)(C)O)CC4)n2)cn1 [Ex. 21]"
label_value = 0.0

[[record]]
compound = "CC(=O)N1CC2CC(Nc3nc(Nc4cnn(C5CCCNC5)c4)ncc3Cl)CC2C1 (stereo not drawn) [Ex. 4]"
label_value = 0.0

[[record]]
compound = "CC(O)Cn1cc(Nc2ncc(Cl)c(NC3CC4CN(S(C)(=O)=O)CC4C3)n2)cn1 (stereo not drawn) [Ex. 38]"
label_value = 0.0

[[record]]
compound = "CC(=O)N1CC2CC(CC#N)(Nc3nc(Nc4cnn(C)c4)ncc3Cl)CC2C1 (stereo not drawn) [Ex. 48]"
label_value = 0.0

[[record]]
compound = "Cn1cc(Nc2ncc(Cl)c(NC3CC4CN(S(=O)(=O)C5CC5)CC4C3)n2)cn1 (stereo not drawn) [Ex. 13]"
label_value = 1.0

[[record]]
compound = "Cn1cc(Nc2ncc(Cl)c(NC3CC4CN(C(=O)N5CCOCC5)CC4C3)n2)cn1 (stereo not drawn) [Ex. 29]"
label_value = 0.0

[[record]]
compound = "CC(C)(O)Cn1cc(Nc2ncc(Cl)c(NC3CC4CN(C(=O)CC#N)CC4C3)n2)cn1 (stereo not drawn) [Ex. 2]"
label_value = 0.0

[[record]]
compound = "Cn1cc(Nc2ncc(Cl)c(NC3CC4CN(S(=O)(=O)CC5CC5)CC4C3)n2)cn1 (stereo not drawn) [Ex. 17]"
label_value = 1.0

[[record]]
compound = "N#CCC(=O)N1CC2CC(Nc3nc(Nc4cnn(C5CCCNC5)c4)ncc3Cl)CC2C1 (stereo not drawn) [Ex. 3]"
label_value = 1.0

[[record]]
compound = "CC(=O)N1CC2CC(Nc3nc(Nc4cnn(CC(C)(C)O)c4)ncc3Cl)CC2C1 (stereo not drawn) [Ex. 1]"
label_value = 0.0

